biological target: Mouse inducible nitric oxide synthase (miNOS) (Mus musculus, UniProt P29477); construct: prepared from an extract of LPS-treated RAW 264.7 cells and partially purified by DEAE-Sepharose chromatography; endogenous in cells; host or cells: LPS-treated RAW 264.7 cells (mouse macrophage line); experiment: biochemical; details: conversion of [3H]-arginine to [3H]-citrulline; 37° C., 15 minutes; read-out: iNOS
Sequence (P29477 whole entry): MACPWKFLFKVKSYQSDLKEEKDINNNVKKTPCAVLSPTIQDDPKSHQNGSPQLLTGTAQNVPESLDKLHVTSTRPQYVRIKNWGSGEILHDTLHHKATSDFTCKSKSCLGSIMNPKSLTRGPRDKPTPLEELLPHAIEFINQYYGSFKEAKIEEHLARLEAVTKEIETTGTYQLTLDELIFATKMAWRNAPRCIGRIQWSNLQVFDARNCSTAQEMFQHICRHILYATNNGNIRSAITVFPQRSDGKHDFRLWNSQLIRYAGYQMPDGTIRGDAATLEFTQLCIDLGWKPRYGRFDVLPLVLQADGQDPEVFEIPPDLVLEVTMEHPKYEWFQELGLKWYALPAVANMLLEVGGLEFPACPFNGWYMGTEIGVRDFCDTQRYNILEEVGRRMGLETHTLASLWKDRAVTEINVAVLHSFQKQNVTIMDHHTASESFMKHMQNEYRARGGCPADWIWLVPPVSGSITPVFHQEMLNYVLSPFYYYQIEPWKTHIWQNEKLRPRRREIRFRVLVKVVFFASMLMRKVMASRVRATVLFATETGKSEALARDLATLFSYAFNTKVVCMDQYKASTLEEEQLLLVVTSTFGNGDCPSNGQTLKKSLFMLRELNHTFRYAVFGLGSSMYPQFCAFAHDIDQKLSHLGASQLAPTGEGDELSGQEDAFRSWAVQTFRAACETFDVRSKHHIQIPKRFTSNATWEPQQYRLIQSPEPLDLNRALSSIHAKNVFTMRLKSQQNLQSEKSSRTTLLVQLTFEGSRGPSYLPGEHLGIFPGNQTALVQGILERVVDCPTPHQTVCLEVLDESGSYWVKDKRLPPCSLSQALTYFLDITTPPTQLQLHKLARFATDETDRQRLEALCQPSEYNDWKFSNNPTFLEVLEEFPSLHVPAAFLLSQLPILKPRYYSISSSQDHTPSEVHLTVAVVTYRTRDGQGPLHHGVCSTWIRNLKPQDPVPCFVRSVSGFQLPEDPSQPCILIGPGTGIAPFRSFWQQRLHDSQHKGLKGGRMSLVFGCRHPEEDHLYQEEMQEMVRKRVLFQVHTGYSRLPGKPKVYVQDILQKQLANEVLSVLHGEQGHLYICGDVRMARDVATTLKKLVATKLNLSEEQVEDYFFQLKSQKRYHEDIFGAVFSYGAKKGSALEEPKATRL
Structures can show the parent of a compound that is named as a salt.
API: label(entry) gives 1.0 if the entry's IC50 is strictly smaller than 5 µM; on equality or larger values it gives 0.0.

# molecule, qualitative label
measured = [
    ("CC1CCNC(=N)CC1 (centres unmarked) [Example 70, monohydrochloride]", 0.0),
    ("CC1CCNC1=N (centres unmarked) [Example 4]", 1.0),
    ("CCCCC1CCCCC(=N)N1.Cl (centres unmarked) [Example 188, monohydrochloride]", 1.0),
    ("CCOC(=O)CCCC[C@@H]1SC[C@@H]2NC(=N)NC21 (some centres unmarked) [Example 22, 2-Iminobiotin ethyl ester]", 0.0),
    ("CC1CCC(N)=NC1 (centres unmarked) [Example 7, 2-Imino-5-methylpiperidine acetate]", 1.0),
]

src = patent US6448286B1
